# credit: patent US20020146411A1

- TARGET DESC: T1, Recombinant human Factor IX (rhFIX) (Homo sapiens, UniProt P00740, T194A)
- T1 construct: purchased Genetics Institute
- T1 sequence (P00740 47-461 T194A): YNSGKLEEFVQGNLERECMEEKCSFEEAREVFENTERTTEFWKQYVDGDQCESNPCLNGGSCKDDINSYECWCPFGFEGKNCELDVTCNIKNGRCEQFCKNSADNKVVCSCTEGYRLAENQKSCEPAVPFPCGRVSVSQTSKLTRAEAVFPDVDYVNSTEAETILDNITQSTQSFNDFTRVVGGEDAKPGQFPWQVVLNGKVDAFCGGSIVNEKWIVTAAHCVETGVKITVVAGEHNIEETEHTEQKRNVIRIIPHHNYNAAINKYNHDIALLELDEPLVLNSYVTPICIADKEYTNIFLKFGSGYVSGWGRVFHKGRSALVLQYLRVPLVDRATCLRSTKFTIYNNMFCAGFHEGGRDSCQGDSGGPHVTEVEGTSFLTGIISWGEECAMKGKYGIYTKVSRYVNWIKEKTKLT
- ASSAY COMMENT: BIAcore kinetics of Factor IX binding to mAb on protein A surface
- EXPERIMENTAL CONTEXT: rhFIX 49 nM, 5 mM Ca2+, biosensor
Would you kindly list kass for each of these molecules?
Please append the unit to your numeric answer.

Per the records, this molecule ( Chf9: mouse-human chimeric antibody directed against human Factor IX, chains F9CHLC and F9CHHC with BC2 variable regions (antibody) heavy: QIQLVQSGPELKKPGETVKISCKASGYTFTNYGMNWVKQAPGKGLKWMGWINTRNGKSTYVDDFKGRFAFSLESSASTANLQIDNLKDEDTATYFCTREGNMDGYFPFTYWGQGTLVTVSA light: QIVLSQSPAILSASPGEKVTMTCRASSSVNYMHWYQQKPGSSPKPWIYATSNLASGVPARFSGSGSGTSYSLTISRVEAEDAATYYCQQWSINPRTFGGGTKLEIK ) has kass equal to 240000 M⁻¹ s⁻¹

Per the records, this molecule ( BC2: murine monoclonal antibody directed against human Factor IX and/or Factor IXa, isotype IgG2a (antibody, V domains shown) VH: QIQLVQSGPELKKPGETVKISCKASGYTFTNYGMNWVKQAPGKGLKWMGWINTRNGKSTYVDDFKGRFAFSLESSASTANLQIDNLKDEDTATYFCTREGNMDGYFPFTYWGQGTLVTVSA VL: QIVLSQSPAILSASPGEKVTMTCRASSSVNYMHWYQQKPGSSPKPWIYATSNLASGVPARFSGSGSGTSYSLTISRVEAEDAATYYCQQWSINPRTFGGGTKLEIKR ) has kass equal to 480000 M⁻¹ s⁻¹
